These measurements were taken from patent US11840686B2.

Test system: human PKK mRNA
PROTOCOL DETAILS: Antisense inhibition of human PKK mRNA in HepaRG cells, 1,000 nM, MOE/deoxy/cEt oligonucleotides (Example 3)
Format: cell-based
SETUP CONDITIONS: Table 27; HepaRG cells, 1,000 nM antisense oligonucleotide; human PKK mRNA
Strand notation (5' to 3'): a small letter for the sugar, then the base; units joined by * are phosphorothioate-linked, units joined directly phosphodiester-linked; [ ] holds rarer units or linkages, { } end groups; capitals alone tell only the bases. e = 2'-O-(2-methoxyethyl) (MOE); k = constrained ethyl (cEt); [5mC] = 5-methylcytosine; d = 2'-deoxy (DNA)
% inhibition values by entry
Express the result in % but write the number alone.

Solved entries:
| SUBSTANCE | % inhibition (%) |
| --- | --- |
| 548365 (antisense eT*eG*kT*dA*d[5mC]*dT*d[5mC]*d[5mC]*dA*d[5mC]*d[5mC]*dT*d[5mC]*kA*k[5mC]*eG) [compound 548365] | 55 |
| 548325 (e[5mC]*e[5mC]*k[5mC]*dA*d[5mC]*dT*dG*dA*d[5mC]*dT*dG*dA*d[5mC]*kT*kA*e[5mC]; antisense) [compound 548325] | 27 |

Now look at this entry.
Req: Note down % inhibition recorded for 548348 (antisense eT*eG*kA*dG*dT*dG*dA*dT*dG*d[5mC]*d[5mC]*dT*dT*k[5mC]*k[5mC]*eA) [compound 548348]
Resp: 82

====

Tested on: human PKK mRNA
PROTOCOL DETAILS: Dose-dependent antisense inhibition of human PKK in HepaRG cells, 0.11-3.00 uM (Example 6)
Assay type: cell-based
SETUP CONDITIONS: 0.11-3.00 μM
Strand notation (5' to 3'): a small letter for the sugar, then the base; units joined by * are phosphorothioate-linked, units joined directly phosphodiester-linked; [ ] holds rarer units or linkages, { } end groups; capitals alone tell only the bases. e = 2'-O-(2-methoxyethyl) (MOE); k = constrained ethyl (cEt); [5mC] = 5-methylcytosine; d = 2'-deoxy (DNA)
Listing: pIC50 of selected substances
Kindly note that pIC50 refers to -log10 of the concentration in mol/L and answer with the value alone.

Would you please look over these solved cases?
| SUBSTANCE | pIC50 |
| --- | --- |
| 547870 (antisense e[5mC]*eT*kA*dA*d[5mC]*d[5mC]*dT*dT*dA*dG*dA*d[5mC]*dA*k[5mC]*kA*eT) [compound 547870] | 6.22 |
| 548425 (antisense eA*eA*k[5mC]*dA*dG*dT*dA*dT*d[5mC]*dA*d[5mC]*dT*dG*kT*k[5mC]*e[5mC]) [compound 548425] | 6.70 |

// next entry
Req: Specify pIC50 for 548424 (antisense e[5mC]*eA*kG*dT*dA*dT*d[5mC]*dA*d[5mC]*dT*dG*dT*d[5mC]*k[5mC]*kT*eA) [compound 548424] and stop.
Resp: 6.52

====

Test system: human PKK mRNA
PROTOCOL DETAILS: Antisense inhibition of human PKK mRNA in HepaRG cells, 1,000 nM, MOE/deoxy/cEt oligonucleotides (Example 3)
Format: cell-based
SETUP CONDITIONS: HepaRG cells, electroporation with 1,000 nM antisense oligonucleotide, approx. 24 hours, PKK mRNA by RT-PCR (RTS3454), relative to untreated control cells; Table 26 experiment
Strand notation (5' to 3'): a small letter for the sugar, then the base; units joined by * are phosphorothioate-linked, units joined directly phosphodiester-linked; [ ] holds rarer units or linkages, { } end groups; capitals alone tell only the bases. e = 2'-O-(2-methoxyethyl) (MOE); k = constrained ethyl (cEt); [5mC] = 5-methylcytosine; d = 2'-deoxy (DNA)
OBSERVATION TYPE: % inhibition
Report field: quantity (unit follows the number).

Example results:
| SUBSTANCE | RESULT |
| --- | --- |
| 548246 (eT*eT*k[5mC]*d[5mC]*dA*dT*dG*d[5mC]*dA*dT*dA*d[5mC]*dT*k[5mC]*kG*e[5mC]; antisense) [compound 548246] | 46% |
| 548275 (antisense eG*eT*k[5mC]*d[5mC]*d[5mC]*dA*dA*dG*dA*d[5mC]*dA*dT*dT*k[5mC]*k[5mC]*eT) [compound 548275] | 40% |

Req: Complete the entry with % inhibition for 548286 (antisense eG*eG*kG*dA*d[5mC]*dT*dA*d[5mC]*dA*dT*dG*d[5mC]*dA*kA*kT*eA) [compound 548286]
Resp: 47%

Req: Please supply the value of reported % inhibition for the item 548255 (antisense e[5mC]*e[5mC]*k[5mC]*d[5mC]*dA*dT*dG*d[5mC]*dA*dT*dA*d[5mC]*dT*k[5mC]*kG*e[5mC]) [compound 548255]
Resp: 38%

Req: Report % inhibition for 548281 (antisense eG*eG*kT*dT*dG*dA*dG*dG*dG*dA*d[5mC]*dA*dG*kA*k[5mC]*eA) [compound 548281]
Resp: 0%

Req: Specify measured % inhibition for 548241 (e[5mC]*eA*kT*dA*d[5mC]*dT*d[5mC]*dG*d[5mC]*d[5mC]*dT*dT*dT*kG*kT*eG; antisense) [compound 548241] .
Resp: 1%

Req: State its % inhibition: 548228 (eG*eT*kT*dG*dT*dG*dT*dG*dG*d[5mC]*d[5mC]*d[5mC]*dT*k[5mC]*kT*eT; antisense) [compound 548228]
Resp: 37%

====

System: human PKK mRNA
PROTOCOL DETAILS: Dose-dependent antisense inhibition of human PKK in HepaRG cells, 0.19-5.00 uM (Example 5)
Format: cell-based
SETUP CONDITIONS: 5.00 μM, HepaRG cells, electroporation, approximately 16 hours; Table 35
Strand notation (5' to 3'): a small letter for the sugar, then the base; units joined by * are phosphorothioate-linked, units joined directly phosphodiester-linked; [ ] holds rarer units or linkages, { } end groups; capitals alone tell only the bases. e = 2'-O-(2-methoxyethyl) (MOE); [5mC] = 5-methylcytosine; d = 2'-deoxy (DNA)
Some substances, each annotated with its measured percent inhibition of PKK at 5.00 μM.
Your answer is read as %, so omit the unit and give the number.

Sample answers from the record:
| SUBSTANCE | TEST SYSTEM | UNIT INFO | percent inhibition of PKK at 5.00 μM |
| --- | --- | --- | --- |
| 547602 (antisense eT*e[5mC]*eA*e[5mC]*eT*dG*dT*dA*d[5mC]*d[5mC]*dT*dA*dT*dA*dA*e[5mC]*eT*e[5mC]*eT*eA) [compound 547602] | human PKK mRNA | % | 87 |
| 546889 (eG*eT*e[5mC]*e[5mC]*eT*dA*dT*dG*dT*d[5mC]*dA*d[5mC]*dT*dG*dT*eA*e[5mC]*e[5mC]*eT*eA; antisense) [compound 546889] | human PKK mRNA | % | 91 |
| 531231 (eT*eA*eT*e[5mC]*eA*d[5mC]*dT*dG*dT*dA*d[5mC]*dT*dA*dG*dT*eT*eT*e[5mC]*e[5mC]*eT) [compound 531231] | human PKK mRNA | % | 92 |
| 546301 (antisense eT*eT*eG*eT*eA*dA*dT*dG*dT*d[5mC]*dT*dG*dA*d[5mC]*dA*eG*eA*eT*eT*eT) [compound 546301] | human PKK mRNA | % | 87 |

Now, please, on to the next substance.
Req: Report percent inhibition of PKK at 5.00 μM for 546852 (e[5mC]*eA*eG*eT*eA*dT*d[5mC]*dA*d[5mC]*dT*dG*dT*d[5mC]*d[5mC]*dT*eA*eT*eA*eT*e[5mC]; antisense) [compound 546852]
Resp: 85

====

Test system: human PKK mRNA
PROTOCOL DETAILS: Dose-dependent antisense inhibition of human PKK in HepaRG cells, 0.11-3.00 uM (Example 6)
Format: cell-based
SETUP CONDITIONS: electroporation, 0.11 μM, approx. 16 hours, relative to untreated control cells
Strand notation (5' to 3'): a small letter for the sugar, then the base; units joined by * are phosphorothioate-linked, units joined directly phosphodiester-linked; [ ] holds rarer units or linkages, { } end groups; capitals alone tell only the bases. e = 2'-O-(2-methoxyethyl) (MOE); k = constrained ethyl (cEt); [5mC] = 5-methylcytosine; d = 2'-deoxy (DNA)
Tag: Fulfilled if measured percent inhibition of PKK mRNA, 0.11 μM is not below 20%, Not fulfilled if it is.

| SUBSTANCE | ASSIGNED CATEGORY |
| --- | --- |
| 548004 (eA*eG*kT*dA*dA*d[5mC]*d[5mC]*dA*dG*dA*dG*d[5mC]*dT*k[5mC]*k[5mC]*e[5mC]; antisense) [compound 548004] | Fulfilled |
| 548343 (antisense eT*eA*kG*dT*dG*dA*dT*dA*dA*dG*dA*dG*d[5mC]*kT*kG*eG) [compound 548343] | Fulfilled |
| 547835 (e[5mC]*e[5mC]*kA*dG*dA*dA*dA*d[5mC]*dT*dG*d[5mC]*dA*d[5mC]*k[5mC]*kT*eG; antisense) [compound 547835] | Fulfilled |
| 548247 (antisense e[5mC]*eG*kA*dT*dT*dT*dT*d[5mC]*d[5mC]*dA*dT*dG*d[5mC]*kA*kT*eA) [compound 548247] | Not fulfilled |
| 548046 (eT*eA*kT*d[5mC]*dA*dT*dG*dA*dT*dT*d[5mC]*d[5mC]*d[5mC]*kT*kT*e[5mC]; antisense) [compound 548046] | Not fulfilled |
| 548547 (antisense eG*eT*kG*d[5mC]*dG*dA*dT*dT*dA*dA*dG*d[5mC]*d[5mC]*k[5mC]*k[5mC]*eA) [compound 548547] | Fulfilled |
| 547947 (eG*eG*kA*dA*d[5mC]*dT*dT*dG*dG*dT*dG*dT*dG*k[5mC]*k[5mC]*eA; antisense) [compound 547947] | Fulfilled |
| 548278 (antisense eG*eG*kT*dT*d[5mC]*d[5mC]*d[5mC]*dT*dA*dG*d[5mC]*dG*dG*kT*k[5mC]*e[5mC]) [compound 548278] | Not fulfilled |
| 547862 (antisense eG*eA*k[5mC]*dT*d[5mC]*d[5mC]*dT*d[5mC]*dT*d[5mC]*dA*dT*dA*kT*k[5mC]*eA) [compound 547862] | Fulfilled |
| 547861 (antisense eA*e[5mC]*kT*d[5mC]*d[5mC]*dT*d[5mC]*dT*d[5mC]*dA*dT*dA*dT*k[5mC]*kA*eA) [compound 547861] | Not fulfilled |

Req: // inclusive: percent inhibition of PKK mRNA, 0.11 μM at least 20%? input: 548109 (antisense eG*e[5mC]*kA*dT*d[5mC]*dT*dG*dA*dG*d[5mC]*dT*dT*dT*kT*k[5mC]*e[5mC]) [compound 548109]
Resp: Fulfilled

Req: Could you tell me if the measured percent inhibition of PKK mRNA, 0.11 μM of 548201 (eT*eG*kT*dT*d[5mC]*dT*dA*dA*dT*dG*dT*dG*dG*k[5mC]*kA*e[5mC]; antisense) [compound 548201] reaches 20% or more?
Resp: Not fulfilled
